Numbers sourced from the DeepSol protein solubility set.

# test name: soluble on expression in E. coli; label from the status in PepcDB or PDB records
measured property: soluble on expression in E. coli

Solved cases below.
INPUT: Query (sequence): MGSDKIHHHHHHMDKMKAITFFDLDGTLLDGTSQITPEITAAVAALKDNQILPLIATGRTLCEIQPIMKASGIDSAIVMNGQFIHYEGKTIYSDEFTTEECVSLHEHVKQRGHELAFYNERRIFCTGHTGTVKQAYDYIHSAVPEIDPTGYENDAVNMMLVLSQHGDDDEYYYERFPELTFYRNGPFSIDIVRKGVSKGSGVKNLFNTLGLNGIPTYAFGDGINDLALFEACDYGIAMGNAREELKEKATFISTKNTENGIVNGLKKFDLL ; field requested: soluble on expression in E. coli
OUTPUT: not soluble

INPUT: What value of measured soluble on expression in E. coli is listed for MYKILEKKEIAMRNTWYKVYAPHVAKKVQPGQFVIVRAFPNGERIPLTPVMWDREEGWIVLIVFTRGKTTMRMAVELKEGDSLLNVAGPLGTPVPMEKFGKILAIGAYTGIVEVYPIAKAWQEIGNDVTTLHVTFEPMVILKEELEKAVTRHIVEPVPLNPNQDFLANMKNVSQRLKEKVRELLESEDWDLVFMVGPVGDQKQVFEVVKEYGVPMKVDLHPIMVDGTGMCGACRVTVGGEVKFACVDGPEFDAYQVDWDELIHRVGFYAKLEKLALEKYMEELKAKGVILEHHHHHH ?
OUTPUT: not soluble

INPUT: Item MSKRLPPLNALRVFDAAARHLSFTRAAEELFVTQAAVSHQIKSLEDFLGLKLFRRRNRSLLLTEEGQSYFLDIKEIFSQLTEATRKLQARSAKGALTVSLPPSFAIQWLVPRLSSFNSAYPGIDVRIQAVDRQEDKLADDVDVAIFYGRGNWPGLRVEKLYAEYLLPVCSPLLLTGEKPLKTPEDLAKHTLLHDASRRDWQAYTRQLGLNHINVQQGPIFSHSAMVLQAAIHGQGIALANNVMAQSEIEAGRLVCPFNDVLVSKNAFYLVCHDSQAELGKIAAFRQWILAKAATEQEKFRFRYEQ has what recorded soluble on expression in E. coli?
OUTPUT: not soluble

INPUT: Data request, read-out soluble on expression in E. coli, for MSQATKRKHVVKEVLGEHIVPSNQQQIVRVLRTPGNNLHEVETAQGQRFLVSMPSKYRKNIWIKRGDFLIVDPIEEGEKVKAEISFVLCKDHVRSLQKEGFWPEAFSEVAEKHNNRNRQTQPELPAEPQLSGEESSSEDDSDLFVNTNRRQYHESEEESEEEEAA
OUTPUT: soluble

INPUT: Please report the recorded soluble on expression in E. coli for MSLIHYIPMFGKIKLTNLEIKMGNELISIKEEGDYFLYLRRDVERVIVGDYLQILPAPARGYGVKLMMVKLKRPIALAPGKSIEGFIQVPVEVSVKVGDSEIDRFGIGREKYALYGTLENGVIVRYCTGYIGNEPNGLGNLKVKIVNKGEDWGFIDRIVFPMLDLMYYSKDKAFYPLIRVEIQEDINVINTGEAPLPNLVSTGEEKSLRFRMRWEGHHHHHH .
OUTPUT: soluble

Alright, here's another sequence for you.
INPUT: Please report the recorded soluble on expression in E. coli for MSTTHNSLPASSDKHHDGHGEASLYHDSHGHAWSGNPNYTLTQLIPELRINLGSSLDIGSGEGADAAWLASLGWKAVGLEPSGVAVERSRELSSNATFIQGKVPQDLDRCGGPFDLVTGFYIPIAGEDAWRAIARQVADGGYLIYVHHNLDELRAKGHPLLGRDDLLMPFDAADLAPSGAWEIVVHETRHREIVGGHGHHHHLDDVLVLKRRKK .
OUTPUT: not soluble

====

# test name: soluble on expression in E. coli; label from the status in PepcDB or PDB records
measured property: soluble on expression in E. coli

INPUT: If you can, please state the reported soluble on expression in E. coli value of MIMQEIFLCSISNVRSGDCKEDCAYCTQSSHHQGAIKRYKFKDEKVVLQEARALRQLGALGFCLVTSGRELDDEKCEYIAKLAKAINQEELGLHLIACCGRADLEQLEFLRDAGIHSYNHNLETSQNFFPKICSTHTWEERFITCENALRAGLGLCSGGIFGLNESWEDRIEMLRALASLSPHTTPINFFIKNPVLPIDAETLSADEALECVLLAKEFLPNARLMVAGGREVVFKDNDKKEAKLFEYGINAVVLGDYLTTKGKAPKKDIEKLLSYGLTMATSCHLEHHHHHH .
OUTPUT: not soluble

INPUT: Which measured soluble on expression in E. coli value corresponds to MGSDKIHHHHHHMEPDFYHGFYPPTPLKTYPEEIFYIGKCTENMQPVGLDIGTNYTKITADGKNVLLYPSIVAYGEEKDWSLKGETKSVYIGDEALSIVQSMENVEVLRPLHEGRVLHTSYLELAKYGLNKLKVKDGLIATGLPVKSSKKEREELKRELESELNSKVLIFPEPVGTMAYMGMETGVCVDIGFGTTDVLVIADMEYLKGDTMLMGVDKLYENLEVAVRNRIGISITPEEMTKLLTTEGYEIGRIRGGKKVSVSREEIMPEYEGYVKTWVERIASRVKLVLEGLSTTLVENFAITGGGSMLPGVYEMFKESFSDIGDVKRPDEPIKANSIGYYILAKSLVVEAETEQSGDAEILDADDKKKGRKGKK ?
OUTPUT: not soluble

====

# test name: soluble on expression in E. coli; label from the status in PepcDB or PDB records
measured property: soluble on expression in E. coli

INPUT: Any idea what soluble on expression in E. coli was measured for MVADHFRYLVQYDDINREEHAHKSRIAYQEALGIAKDKMQPTHPIRLGLALNASALNFDVLNLPKEANEIAQSALDSAHRELEKMKSSLDSYDISNLKRARTLYDLLKSTHEQRVDGKEGEEADN ?
OUTPUT: not soluble

INPUT: State the recorded soluble on expression in E. coli for this entry: GSDARSRGRVPGYASSSLYRESGIISARQLALLQRMLPRLRLEQLFRCEWLQQRLARGLALGREEVRQILLCAAQDDDGWCSELGDRVNLAVPQSMIDWVLLPVYGWWESLLDQAIPGWRLSLVELETQSRQLRVKSEFWSRVAELEPEQAREELARVAKCQARTQEQVAELAGKLETASALAKSAWPNWQRGMATLLASGGLAGFEPIPEVLECLWQPLCRLDDDVGAADAVQAWLHERNLCQAQDHFYWQS
OUTPUT: not soluble

====

# test name: soluble on expression in E. coli; label from the status in PepcDB or PDB records
measured property: soluble on expression in E. coli

INPUT: # query: soluble on expression in E. coli of entry ATPALRFVAVGDWGGVPNAPFHTAREMANAKEIARTVQILGADFILSLGDNFYFTGVQDINDKRFQETFEDVFSDRSLRKVPWYVLAGNHDHLGNVSAQIAYSKISKRWNFPSPFYRLHFKIPQTNVSVAIFMLDTVTLCGNSDDFLSQQPERPRDVKLARTQLSWLKKQLAAAREDYVLVAGHYPVWSIAEHGPTHCLVKQLRPLLATYGVTAYLCGHDHNLQYLQDENGVGYVLSGAGNFMDPSKRHQRKVPNGYLRFHYGTEDSLGGFAYVEISSKEMTVTYIEASGKSLFKTRLPRRARP
OUTPUT: soluble

INPUT: Which value of soluble on expression in E. coli has been reported for MADKSAEKERLFNEWFTASYDRLRGTLRRYGMLDEDNFHDTYLFVRRQVLVPGKDITDYDAYFIGCYKKAALVKIKRENRYAHPEDDFFLRCGEEAKFLSEDDLNGCERLVRDILRFVRQKFSYEEYRMFMLRFYEAQFSFKALAECMGISASAISQKVCRIVDAVRTHSGFAWRSQMLAVESFMY in the records?
OUTPUT: not soluble

INPUT: Would you mind telling me what soluble on expression in E. coli value was observed for GHEIKDIREDTMHAEFNALRAQVAINDGNPDEAERLAKLALEELPPGWFYSRIVATSVLGEVLHCKGELTRSLALMQQTEQMARQHDVWHYALWSLIQQSEILFAQGFLQTAWETQEKAFQLINEQHLEQLPMHEFLVRIRAQLLWAWARLDEAEASARSGIEVLSSYQPQQQLQCLAMLIQCSLARGDLDNARSQLNRLENLLGNGKYHSDWISNANKVRVIYWQMTGDKAAAANWLRHTAKPEFANNHFLQGQWRNIARAQILLGEFEPAEIVLEELNENARSLRLMSDLNRNLLLLNQLYWQAGRKSDAQRVLLDALKLANRTGFISHFVIEGEAMAQQLRQLIQLNTLPELEQHRAQRILREINQHHGA ?
OUTPUT: soluble

INPUT: May I ask what soluble on expression in E. coli has been recorded for MAHHHHHHMFCFSRGLWMRHIGQDVPKRHTHFVLESRLMYEKSFRDCWLHSVCRAISQLDEPLSKTVVGTHQKMLQRKVTCFQYNQYGLFKTPYYRLANVDRYHAVQGVAGTREWVPYVNVSYWTMNKMVRGGNLLVHRVHYTGWGTDSHLKKGGWEHRWNKVLQRNVLQYSRI ?
OUTPUT: not soluble

INPUT: Look up soluble on expression in E. coli: MSLGYIMDLRKELPNPHRPLIMCSAGIIIIDKKGRVLLQKRTDNNKWGLPGGSLELGESFEEAAIREAYEEVGLKVKSLSLFNVYSGKECYNKYPNGDEIYNASSIFISNDYEGEVILDGEESADAVFFKKVDIPSLEEVNPPDRIVIKDIIEKLNIEKYEGHHHHHH
OUTPUT: not soluble

INPUT: Give its soluble on expression in E. coli value. Item: MKAILQRSIALLALAAGMSSVACADEVKMRVLGWYGNQPQSQQVERPFWKDLPKRSNGAFSANFRTIDELGLKGFESLRTLQSGAFDVVSFQISFVGGDAPVLMGADLPGAAFDFDQLQKNLDAYRPILEKELNDRFKAKLLTAWSFPFQILYCKGDIKTLDDLKGKKVRVSGTYTAKMVADLNAAGATLAGPEVYQGLMQGVVDCAITGSQYGNSNDWFEVAHSLSPIPLGGAGVVLQVARNAFWDKLSADQQAALSAEMKQLETALWDISRKGHEDGINCNVGKQPCTGKPGKMQLVEPTEADVREVKQLLKTSIVPMWIEDCSKFSKTCGDDWFRTIGAAAGIARLEHHHHHH
OUTPUT: not soluble

Continuing:
INPUT: Bench note: what soluble on expression in E. coli did SNAMEHKIVHVGDIPVANDKPFTLFAGMNVLESRDLAMQICEHYVKVTDKLGIPYVFKASFDKANRSSVHSYRGPGLEEGMKIFQELKETFGVKIITDVHTEAQAQPVADVVDVIQLPAFLARQTDLVEAMAKTGAVINVKKPQFMSPGQVGNIVEKFAECGNDKVILCERGSCHGYDNLVVDMLGFGVMKQASNGSPIIFDVTHSLQMRDPSGAASGGRREQTVELAKAGLATGIAGLFIEAHPNPDKARCDGPSALPLDKLEPFLAQMKALDDLIKSFAHIDIR show?
OUTPUT: soluble

INPUT: Would you kindly share the measured soluble on expression in E. coli for MSEIAMHVTAKPSSFQCNLKCDYCFYLEKESQFTHEKWMDDSTLKEFIKQYIAASGNQVYFTWQGGEPTLAGLDFFRKVIHYQQRYAGQKRIFNALQTNGILLNNEWCAFLKEHEFLVGISIDGPQELHDRYRRSNSGNGTFAKVIAAIERLKSYQVEFNTLTVINNVNVHYPLEVYHFLKSIGSKHMQFIELLETGTPNIDFSGHSENTFRIIDFSVPPTAYGKFMSTIFMQWVKNDVGEIFIRQFESFVSRFLGNGHTSCIFQESCKDNLVVESNGDIYECDHFVYPQYKLGNINKSELKTMNSVQLTAQKKRISAKCQQCAYKPICNGGCPKHRITKVNDETVSYFCEGYKILFSTMVPYMNAMVELAKNRVPLYHIMDVAKQMENN ?
OUTPUT: not soluble

INPUT: So what does the record say about soluble on expression in E. coli for MATFVRNAWYVAALPEELSEKPLGRTILDTPLALYRQPDGVVAALLDICPHRFAPLSDGILVNGHLQCPYHGLEFDGGGQCVHNPHGNGARPASLNVRSFPVVERDALIWIWPGDPALADPGAIPDFGCRVDPAYRTVGGYGHVDCNYKLLVDNLMDLGHAQYVHRANAQTDAFDRLEREVIVGDGEIQALMKIPGGTPSVLMAKFLRGANTPVDAWNDIRWNKVSAMLNFIAVAPEGTPKEQSIHSRGTHILTPETEASCHYFFGSSRNFGIDDPEMDGVLRSWQAQALVKEDKVVVEAIERRRAYVEANGIRPAMLSCDEAAVRVSREIEKLEQLEAARLEHHHHHH ?
OUTPUT: soluble

INPUT: # get_value(readout='soluble on expression in E. coli', item= MGSDKIHHHHHHMQPFSSYTVREVIKGGNSMELRSFGNTDIQVSPLGFGAGHIGSDDLSDQEASYILHQALDTGIRLFDTARGYGLSEKRLGQFLKQRRHDVVLSTKVGYDVPRTEDWTFQAVAGGIDQALLTMQTDFIDIVHLHSCSKEILAQDDVIEALERAKQAGKVRLIAYSGDREDLDYAITTGRFDSFQTSVNLYDQRALMDSVPLIHQQQKGIIAKRPIANAPWRFASRPVGQYVEPYWERAQQLDFPLEEASWLETALRFTVFEPGVTSAIIGTANPEHLVQNIRLLEKGALPAERVADLKRRFQEQDENWLQQT )
OUTPUT: not soluble
